System: Alopecurus myosuroides (ALOMY)
Experiment: Example B post-emergence herbicidal test, ALOMY
Type: in vivo
Details: Alopecurus myosuroides, 312 h, rate 250 g/ha, evaluated after 13 days, scale 0-100, read-out: Post-emergence activity ALOMY (100=total damage to plant; 0=no damage to plant)
// reported pest or weed control at 250 g/ha per item
Value expressed in %; do not type the unit.

Field: example entries. Status: answers known.
Exercise: State its pest or weed control at 250 g/ha for this compound: Cc1cc(C)c(C2C(=O)CC(CC3CCN(C(=O)c4cc(C)nn4C)CC3)C2=O)c(C)c1 (stereo not shown)
Solution: 80

Exercise: Provide measured pest or weed control at 250 g/ha value, entry: Cc1cc(C)c(C2=C(OC(=O)c3ccccc3)C/C(=C\C3CCN(C(=O)c4ccccc4)C3)C2=O)c(C)c1 (stereo not shown)
Solution: 90

Exercise: // Input: Cc1cc(C)c(C2C(=O)CC(CC3CCN(S(=O)(=O)C(C)C)CC3)C2=O)c(C)c1 (stereo not shown) . Output its pest or weed control at 250 g/ha only.
Solution: 60

Exercise: Give recorded pest or weed control at 250 g/ha. Cc1cc(-c2ccc(C(F)(F)F)cc2)cc(C)c1C1C(=O)CC(CC2CCOCC2)C1=O (stereo not shown)
Solution: 50

Others:
Exercise: Complete the entry with pest or weed control at 250 g/ha for Cc1cc(C)c(C2=C(OC(=O)C3CC3)CC(CC3CCN(C(=O)C4CC4)C3)C2=O)c(C)c1 (stereo not shown)
Solution: 80

Exercise: Provide pest or weed control at 250 g/ha value for the following compound: Cc1cc(C)c(C2C(=O)CC(C(O)C3CCSCC3)C2=O)c(C)c1 (stereo not shown)
Solution: 20

Exercise: Output pest or weed control at 250 g/ha of CCS(=O)(=O)OC1=C(c2c(C)cc(C)cc2C)C(=O)C(CC2CCOC2)C1 (stereo not shown)
Solution: 80

Exercise: # return recorded pest or weed control at 250 g/ha for input Cc1cc(C)c(C2=C(OC(=O)OC(C)(C)C)CC(CC3CCN(C(=O)OC(C)(C)C)CC3)C2=O)c(C)c1 (stereo not shown)
Solution: 70

Exercise: Tell me its pest or weed control at 250 g/ha given CON1CCC(CC2CC(=O)C(c3c(C)cc(C)cc3C)C2=O)CC1 (stereo not shown) as the entry.
Solution: 90

Exercise: State its pest or weed control at 250 g/ha for this compound: Cc1cc(C)c(C2=C(OC(=O)OC(C)C)CC(CC3CCOC3)C2=O)c(C)c1 (stereo not shown)
Solution: 90

###

Tested on: Lolium perenne (LOLPE)
Assay: Example B post-emergence herbicidal test, LOLPE
Format: in vivo
Conditions: Lolium perenne, 312 h, rate 250 g/ha, evaluated after 13 days, scale 0-100, read-out: Post-emergence activity LOLPE (100=total damage to plant; 0=no damage to plant)
Under this convention, 1 (yes) denotes pest or weed control at 250 g/ha strictly below 70% and 0 (no) denotes pest or weed control at 250 g/ha at or above 70%.

Past entries and their recorded results:
Exercise: Could you please tell me whether pest or weed control at 250 g/ha recorded for Cc1cc(C)c(C2C(=O)CC(CC3CCS(=O)(=O)CC3)C2=O)c(C)c1 (stereo not drawn) is less than 70%?
Solution: 0 (no)

Exercise: I wonder whether Cc1cc(C)c(C2C(=O)CC(CC3CCN(C(=O)C4CC4)CC3)C2=O)c(C)c1 (stereo not drawn) has pest or weed control at 250 g/ha below 70%. Can you tell?
Solution: 0 (no)

Exercise: Report whether reported pest or weed control at 250 g/ha is lower than 70% (strictly) for CON1CCC(CC2CC(OC(=O)OC(C)C)=C(c3c(C)cc(C)cc3C)C2=O)CC1 (stereo not drawn)
Solution: 0 (no)

Exercise: Report whether reported pest or weed control at 250 g/ha is lower than 70% (strictly) for COC(=O)OC1=C(c2c(C)cc(C)cc2C)C(=O)C(CC2CCOCC2)C1 (stereo not drawn)
Solution: 0 (no)

Exercise: Just wondering, is pest or weed control at 250 g/ha of CON1CCC(CC2CC(OC(=O)c3ccccc3)=C(c3c(C)cc(C)cc3C)C2=O)CC1 (stereo not drawn) below 70%?
Solution: 0 (no)

Exercise: Say whether its pest or weed control at 250 g/ha is strictly beneath 70%. Entry: Cc1cc(C)c(C2C(=O)CC(CC3CCN(C(=O)C4CCCCC4)CC3)C2=O)c(C)c1 (stereo not drawn)
Solution: 1 (yes)

Next:
Exercise: # TODO verify pest or weed control at 250 g/ha < 70% strictly for this compound: Cc1cc(-c2ccc(C(F)(F)F)cc2)cc(C)c1C1C(=O)CC(CC2CCOCC2)C1=O (stereo not drawn)
Solution: 1 (yes)

Exercise: State whether 70% exceeds pest or weed control at 250 g/ha recorded for Cc1cc(C)c(C2C(=O)C/C(=C\C3CCN(Cc4ccccc4)CC3)C2=O)c(C)c1 (stereo not drawn) .
Solution: 1 (yes)

###

Tested on: Lolium perenne (LOLPE)
Experiment: Example B post-emergence herbicidal test, LOLPE
Type: in vivo
Conditions: Lolium perenne, 312 h, rate 250 g/ha, evaluated after 13 days, scale 0-100, read-out: Post-emergence activity LOLPE (100=total damage to plant; 0=no damage to plant)
reported.endpoint: pest or weed control at 250 g/ha (%)
Answer in %, number only, no unit symbol.

Exercise: Give pest or weed control at 250 g/ha for the following molecule: Cc1cc(-c2ccccc2F)cc(C)c1C1C(=O)CC(CC2CCOCC2)C1=O (stereo not shown)
Solution: 90

Exercise: Note down pest or weed control at 250 g/ha recorded for CON1CCC(CC2CC(=O)C(c3c(C)cc(C)cc3C)C2=O)CC1 (stereo not shown)
Solution: 100

Exercise: State, in one line, measured pest or weed control at 250 g/ha of Cc1cc(-c2ccc(F)c(Cl)c2)cc(C)c1C1C(=O)C/C(=C\C2CCOCC2)C1=O (stereo not shown)
Solution: 90

Next:
Exercise: Quote pest or weed control at 250 g/ha reported for C=CCOC(=O)OC1=C(c2c(C)cc(C)cc2C)C(=O)C(CC2CCOC2)C1 (stereo not shown) please.
Solution: 100

Exercise: Give the reported pest or weed control at 250 g/ha for this molecule. Cc1cc(C)c(C2C(=O)CC(C)(C(O)C3CCOCC3)C2=O)c(C)c1 (stereo not shown)
Solution: 80

Exercise: Retrieve pest or weed control at 250 g/ha measured for Cc1cc(C)c(C2=C(OC(=O)C(C)C)CC(CC3CCN(C(=O)C(C)C)C3)C2=O)c(C)c1 (stereo not shown) and print it.
Solution: 90

###

System: Echinochloa crus-galli (ECHCG)
Test: Example B post-emergence herbicidal test, ECHCG
Assay type: in vivo
Conditions: Echinochloa crus-galli, 312 h, rate 250 g/ha, evaluated after 13 days, scale 0-100, read-out: Post-emergence activity ECHCG (100=total damage to plant; 0=no damage to plant)
Quick reference for pest or weed control at 250 g/ha among some molecules
Field format: number, assumed %, no unit text.

Exercise: Please give measured pest or weed control at 250 g/ha of the following entry: Cc1cc(-c2ccc(F)cc2)cc(C)c1C1C(=O)CC(CC2CCOCC2)C1=O (centres unmarked)
Solution: 90

# ---- query molecule ----
Exercise: Supply recorded pest or weed control at 250 g/ha for Cc1cc(C)c(C2C(=O)CC(CC3CCN(C(=O)c4c(C)noc4C)CC3)C2=O)c(C)c1 (centres unmarked) here.
Solution: 40

###

System: Lolium perenne (LOLPE)
Assay: Example B post-emergence herbicidal test, LOLPE
Type: in vivo
Conditions: Lolium perenne, 312 h, rate 250 g/ha, evaluated after 13 days, scale 0-100, read-out: Post-emergence activity LOLPE (100=total damage to plant; 0=no damage to plant)
Where pest or weed control at 250 g/ha equals or exceeds 80%, the correct label is Fulfilled; where it does not, the label is Not fulfilled.

Exercise: Does pest or weed control at 250 g/ha meet or surpass 80% for Cc1cc(C)c(C2C(=O)CC(CC3CCN(C(=O)CC(C)C)CC3)C2=O)c(C)c1 (stereo not shown) ?
Solution: Fulfilled

Continuing:
Exercise: Could you please find out whether Cc1cc(C)c(C2C(=O)C/C(=C\C3CCS(=O)(=O)CC3)C2=O)c(C)c1 (stereo not shown) has pest or weed control at 250 g/ha that meets 80% or exceeds it?
Solution: Not fulfilled

Exercise: Threshold query (pest or weed control at 250 g/ha >= 80%) on Cc1cc(C)c(C2=C(OC(=O)c3ccc(Cl)nc3)CC(CC3CCN(C(=O)c4ccc(Cl)nc4)C3)C2=O)c(C)c1 (stereo not shown)
Solution: Fulfilled

Exercise: Does CC(=O)OC1=C(c2c(C)cc(C)cc2C)C(=O)/C(=C/C2CCN(C(C)=O)C2)C1 (stereo not shown) have a reported pest or weed control at 250 g/ha of at least 80%?
Solution: Not fulfilled

Exercise: Decide: pest or weed control at 250 g/ha of CCCCOC(=O)N1CCC(CC2CC(=O)C(c3c(C)cc(C)cc3C)C2=O)CC1 (stereo not shown) >= 80%?
Solution: Not fulfilled

Exercise: Answer whether pest or weed control at 250 g/ha of Cc1cc(C)c(C2C(=O)CC(CC3CCN(C(=O)N4CCCCC4)CC3)C2=O)c(C)c1 (stereo not shown) is greater than or equal to 80%.
Solution: Not fulfilled
